Reported Selectivity versus PI3Kalpha values for a set of compounds
Biological target: PI3Kalpha (Homo sapiens, UniProt P42336)
Construct: purchased Upstate; Millipore 14-602
Sequence (P42336 whole entry): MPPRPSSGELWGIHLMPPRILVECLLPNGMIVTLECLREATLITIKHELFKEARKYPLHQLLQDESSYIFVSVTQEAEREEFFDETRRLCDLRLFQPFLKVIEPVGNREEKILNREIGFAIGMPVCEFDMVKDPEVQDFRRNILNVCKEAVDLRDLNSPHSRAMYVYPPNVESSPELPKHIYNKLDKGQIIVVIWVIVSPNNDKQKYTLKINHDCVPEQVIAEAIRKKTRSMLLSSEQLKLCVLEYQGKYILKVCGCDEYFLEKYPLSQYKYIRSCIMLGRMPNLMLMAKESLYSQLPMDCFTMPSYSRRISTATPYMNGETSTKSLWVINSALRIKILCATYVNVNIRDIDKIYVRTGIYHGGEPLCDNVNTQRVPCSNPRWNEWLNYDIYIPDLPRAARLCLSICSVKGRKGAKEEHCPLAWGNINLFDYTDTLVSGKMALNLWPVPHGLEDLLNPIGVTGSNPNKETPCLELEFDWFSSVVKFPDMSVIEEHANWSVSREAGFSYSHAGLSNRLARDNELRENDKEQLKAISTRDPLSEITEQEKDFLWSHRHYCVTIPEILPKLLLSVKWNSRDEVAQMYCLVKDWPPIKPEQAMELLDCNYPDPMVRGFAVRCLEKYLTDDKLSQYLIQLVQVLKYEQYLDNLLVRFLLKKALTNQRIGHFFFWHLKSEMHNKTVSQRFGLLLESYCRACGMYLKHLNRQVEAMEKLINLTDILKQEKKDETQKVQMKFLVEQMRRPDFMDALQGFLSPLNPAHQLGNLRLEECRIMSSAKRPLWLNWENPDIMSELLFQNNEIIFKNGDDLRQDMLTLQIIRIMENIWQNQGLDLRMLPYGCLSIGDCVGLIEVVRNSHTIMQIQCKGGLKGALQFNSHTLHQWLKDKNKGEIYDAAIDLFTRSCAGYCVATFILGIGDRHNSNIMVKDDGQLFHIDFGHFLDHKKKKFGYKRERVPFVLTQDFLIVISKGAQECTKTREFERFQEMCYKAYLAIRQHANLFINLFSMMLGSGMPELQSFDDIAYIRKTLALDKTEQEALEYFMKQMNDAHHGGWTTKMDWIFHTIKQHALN
Sequence (P27986 whole entry partner): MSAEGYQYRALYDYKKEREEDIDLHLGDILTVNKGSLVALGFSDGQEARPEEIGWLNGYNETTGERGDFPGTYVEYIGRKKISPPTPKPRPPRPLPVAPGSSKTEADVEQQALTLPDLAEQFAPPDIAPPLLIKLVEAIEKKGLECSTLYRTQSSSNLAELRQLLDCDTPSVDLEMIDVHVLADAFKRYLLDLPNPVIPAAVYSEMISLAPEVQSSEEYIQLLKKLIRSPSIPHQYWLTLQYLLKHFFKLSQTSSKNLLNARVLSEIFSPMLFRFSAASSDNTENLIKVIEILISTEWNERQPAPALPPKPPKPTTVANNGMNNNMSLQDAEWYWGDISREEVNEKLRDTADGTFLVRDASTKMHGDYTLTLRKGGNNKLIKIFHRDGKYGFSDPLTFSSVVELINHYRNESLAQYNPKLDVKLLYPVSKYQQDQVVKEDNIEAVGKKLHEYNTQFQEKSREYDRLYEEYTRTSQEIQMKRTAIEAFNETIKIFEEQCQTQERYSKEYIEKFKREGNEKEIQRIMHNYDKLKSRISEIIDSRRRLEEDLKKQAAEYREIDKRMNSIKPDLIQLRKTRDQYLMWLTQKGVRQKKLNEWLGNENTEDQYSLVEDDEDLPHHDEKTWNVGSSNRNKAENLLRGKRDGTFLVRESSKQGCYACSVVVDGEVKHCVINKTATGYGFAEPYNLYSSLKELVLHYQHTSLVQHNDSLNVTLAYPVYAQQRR
Assay: HTRF PI3K biochemical assay, alpha isoform (selectivity versus delta)
Conditions: relative ratio PI3K-alpha IC50 value / PI3K-delta IC50 value

Please review the entries below; each comes with its answer.
1) CCn1c(-c2cnc(OC)c(Cl)c2)nc2c(NC3CCc4nnc(C(C)C)n4C3)ncnc21 (single isomer, unassigned): >10
2) CCn1c(-c2ccc(C(F)(F)F)cc2)nc2c(NC3CCc4nnc(C5CC5)n4C3)ncnc21 (single isomer, unassigned) [Compound 1-29]: >10

Looking up CCn1c(-c2cnc(C)nc2)nc2c(NC3CCc4nnc(C(C)C)n4C3)ncnc21 (single isomer, unassigned) [Compound 1-4] , I found its Selectivity versus PI3Kalpha recorded as >10

###

Molecular target: PI3Kdelta (Homo sapiens)
Construct: Millipore 14-604
Test: HTRF PI3K biochemical assay, delta isoform
Details: 0.3 nM enzyme, 100 uM ATP, 5 uM PIP2, form screened (Neutral or TFA salt) given per compound
Description: HTRF PI3K Biochemical Assay to Measure Intrinsic Potency of Compound Inhibitors The PI3-Kinase biochemical assays were developed to measure the intrinsic potency and compound dependent inhibition of the alpha, beta, delta, and gamma PI3K isoform enzymes. […] In the absence of PIP3, an HTRF (Homogeneous Time-Resolved Fluorescence energy transfer) complex is formed consisting of europium (Eu)-labeled anti-GST, GSTtagged GRP1-PH domain, biotin-PIP3 and streptavidin conjugated APC. […]
endpoint-name: IC50 (nM)

Please review the entries below; each comes with its answer.
1. CCn1c(-c2cnc(C)nc2)nc2c(NC3CCc4c(c(C(C)C)nn4C(=O)NC(C)(C)C)C3)ncnc21 (racemic) [Compound 2-21]: 16
2. CCn1c(-c2cnc(C)nc2)nc2c(NC3CCc4c(c(C(C)C)nn4-c4ccccn4)C3)ncnc21 (racemic) [Compound 2-22]: 11

[A] CCn1c(-c2ccc(OC(F)F)nc2)nc2c(NC3CCc4nnc(C5CC5)n4C3)ncnc21 (racemic) [Compound 1-14]
[B] CCn1c(I)nc2c(NC3CCc4nnc(C5CC5)n4C3)ncnc21 (single isomer, unassigned) [Compound 1-27]
Prompt: Please indicate which has the smaller reported IC50: A , or B . Pick one; state its label.
Response: A
(A: 2.1 nM, B: 151 nM)

###

Biological target: PI3Kdelta (Homo sapiens, UniProt O00329)
Construct: Millipore 14-604
Sequence (O00329 whole entry, one chain of several): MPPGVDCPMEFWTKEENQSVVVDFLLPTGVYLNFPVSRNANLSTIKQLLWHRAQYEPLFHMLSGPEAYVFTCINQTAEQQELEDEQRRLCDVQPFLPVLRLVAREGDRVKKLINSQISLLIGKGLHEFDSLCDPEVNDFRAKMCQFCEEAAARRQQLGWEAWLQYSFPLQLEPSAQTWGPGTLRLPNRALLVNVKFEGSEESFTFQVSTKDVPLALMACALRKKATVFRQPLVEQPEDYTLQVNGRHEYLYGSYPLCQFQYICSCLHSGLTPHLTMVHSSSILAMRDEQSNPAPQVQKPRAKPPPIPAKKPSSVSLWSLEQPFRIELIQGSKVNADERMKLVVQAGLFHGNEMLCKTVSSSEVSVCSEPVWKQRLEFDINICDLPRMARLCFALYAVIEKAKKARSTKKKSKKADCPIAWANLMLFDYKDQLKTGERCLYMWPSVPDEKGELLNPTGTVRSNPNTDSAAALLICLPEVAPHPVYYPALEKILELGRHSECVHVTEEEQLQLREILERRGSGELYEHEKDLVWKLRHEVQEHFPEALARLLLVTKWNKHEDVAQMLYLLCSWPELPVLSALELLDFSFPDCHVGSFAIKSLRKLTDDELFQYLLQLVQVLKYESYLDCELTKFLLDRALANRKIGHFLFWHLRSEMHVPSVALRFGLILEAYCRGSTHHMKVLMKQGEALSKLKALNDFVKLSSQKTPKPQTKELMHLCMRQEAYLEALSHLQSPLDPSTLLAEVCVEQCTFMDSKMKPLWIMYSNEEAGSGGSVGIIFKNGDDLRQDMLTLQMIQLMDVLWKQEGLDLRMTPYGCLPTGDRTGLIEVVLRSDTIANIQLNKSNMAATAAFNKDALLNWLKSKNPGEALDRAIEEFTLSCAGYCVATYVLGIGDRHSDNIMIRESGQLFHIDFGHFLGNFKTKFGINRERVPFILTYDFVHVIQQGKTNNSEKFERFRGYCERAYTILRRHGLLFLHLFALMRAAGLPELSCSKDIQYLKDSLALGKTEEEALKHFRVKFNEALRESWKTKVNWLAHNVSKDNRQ
Test: HTRF PI3K biochemical assay, delta isoform
Conditions: 0.3 nM enzyme, 100 uM ATP, 5 uM PIP2, form screened (Neutral or TFA salt) given per compound
endpoint-name: IC50 (nM)

Please review the entries below; each comes with its answer.
1. CCn1c(C(F)F)nc2c(NC3CCc4nnc(C(C)C)n4C3)ncnc21 (single isomer, unassigned) [Compound 1-9]: 16
2. CCn1c(-c2ccc(C(F)(F)F)nc2)nc2c(NC3CCc4nnc(C(C)C)n4C3)ncnc21 (single isomer, unassigned) [Compound 1-19]: 31
3. CCn1c(-c2cnc(C)nc2)nc2c(NC3CCc4nc(C(F)F)n(C5CC5)c4C3)ncnc21 (single isomer, unassigned) [Compound 5-11]: 40
4. CCn1c(-c2ccc(OC)nc2)nc2c(NC3CCc4nnc(C5CC5)n4C3)ncnc21 (racemic): 1.2
5. CCn1c(-c2cnc(C)nc2)nc2c(NC3CCc4cnc(C(C)C)n4C3)ncnc21 (single isomer, unassigned): 5.2

[1] CCn1c(C(F)F)nc2c(NC3CCc4nnc(C(C)C)n4C3)ncnc21 (single isomer, unassigned) [Compound 1-8]
[2] CCn1c(-c2ccc(C(F)(F)F)nc2)nc2c(NC3CCc4ncn(C5CC5)c4C3)ncnc21 (single isomer, unassigned) [Compound 5-3]
Prompt: Please indicate which has the smaller reported IC50: 1 , or 2 . Pick one; state its label.
Response: 2
(2: 180 nM, 1: 460 nM)

[I] CCn1c(-c2cnc(C)nc2)nc2c(NC3CCc4ncc(C5CC5)n4C3)ncnc21 (single isomer, unassigned) [Compound 4-1]
[II] CCn1c(-c2cnc(OC)c(F)c2)nc2c(NC3CCc4nnc(C5CC5)n4C3)ncnc21 (racemic)
[III] CCn1c(-c2cnc(C)nc2)nc2c(NC3CCc4nnc(C5CC5)n4C3)ncnc21 (single isomer, unassigned) [Compound 1-2]
Prompt: # rank by IC50, ascending (min first) Returns: the labels listed in the requested order.
Response: II, I, III
(II: 1.1 nM, I: 6.9 nM, III: 65 nM)

[A] CCn1c(-c2cnc(C)nc2)nc2c(NC3CCc4[nH]nc(C(C)C)c4C3)ncnc21 (single isomer, unassigned)
[B] CCn1c(-c2cnc(C)nc2)nc2c(OC3CCc4nnc(C(C)C)n4C3)ncnc21 (single isomer, unassigned) [Compound 1-34]
[C] CCn1c(-c2cnc(C)nc2)nc2c(NC3Cc4c(ncn4C(C)C)C(C)C3)ncnc21 (single isomer, unassigned) [Compound 5-18]
Prompt: # rank by IC50, ascending (min first) Returns: the labels listed in the requested order.
Response: A, B, C
(A: 1.8 nM, B: 4.1 nM, C: 510 nM)

[1] CCn1c(-c2cnc(C)nc2)nc2c(NC3CCc4ncn(C(C)C)c4C3)ncnc21 (single isomer, unassigned) [Compound 5-15]
[2] CCn1c(C(F)F)nc2c(NC3CCc4[nH]nc(C(C)C)c4C3)ncnc21 (racemic)
Prompt: Could you please tell me which of these two has the higher IC50: 1 or 2 ? Pick one; state its label.
Response: 2

###

Target: PI3Kdelta (Homo sapiens, UniProt O00329)
Construct: Millipore 14-604
Assay: HTRF PI3K biochemical assay, delta isoform
Conditions: 0.3 nM enzyme, 100 uM ATP, 5 uM PIP2, form screened (Neutral or TFA salt) given per compound
pIC50: −log10 of the molar value.
endpoint-name: pIC50

Please review the entries below; each comes with its answer.
1) CCn1c(-c2cnc(C)nc2)nc2c(NC3CCc4c(c(C(C)C)nn4CCN(C)C)C3)ncnc21 (racemic): 8.13
2) CCn1c(-c2ccc(C(F)(F)F)nc2)nc2c(NC3CCc4ncn(C5CC5)c4C3)ncnc21 (single isomer, unassigned) [Compound 5-2]: 8.48
3) CCn1c(-c2cnc(C)nc2)nc2c(NC3Cc4c(ncn4C(C)C)CC3C)ncnc21 (single isomer, unassigned) [Compound 5-19]: 8.77
4) CCn1c(-c2ccc(C(F)(F)F)cc2)nc2c(NC3CCc4nnc(C5CC5)n4C3)ncnc21 (single isomer, unassigned) [Compound 1-28]: 8.85

[I] CCn1c(C(F)F)nc2c(NC3CCc4ncn(C5CC5)c4C3)ncnc21 (single isomer, unassigned)
[II] CCn1c(-c2cnc(C)nc2)nc2c(NC3CCc4ncn(C(C)C)c4C3C)ncnc21 (single isomer, unassigned) [Compound 5-21]
Prompt: Could you please tell me which of these two has the higher pIC50: I or II ? Pick one; state its label.
Response: II
(II: 8.24, I: 6.77)

###

Molecular target: PI3Kdelta (Homo sapiens)
Construct: purchased Upstate; Millipore 14-604
Experiment: HTRF PI3K biochemical assay, delta isoform
Settings: 0.3 nM enzyme, 100 uM ATP, 5 uM PIP2, form screened (Neutral or TFA salt) given per compound
pIC50: −log10 of the molar value.
endpoint-name: pIC50

Please review the entries below; each comes with its answer.
1. CCCn1nc(C(C)C)c2c1CCC(Nc1ncnc3c1nc(-c1cnc(C)nc1)n3CC)C2 (single isomer, unassigned): 8.21
2. CCn1c(-c2cnc(C)nc2)nc2c(NC3CCc4nn(C)c(C(C)C)c4C3)ncnc21 (single isomer, unassigned): 7.39

[1] CCn1c(-c2cnc(C)nc2)nc2c(NC3Cc4c(ncn4C(C)C)CC3C)ncnc21 (single isomer, unassigned) [Compound 5-20]
[2] CCn1c(-c2cnc(C)nc2)nc2c(NC3CCc4c(c(C(C)C)nn4C(=O)c4ccccc4)C3)ncnc21 (racemic)
[3] CCn1c(-c2cnc(C)nc2)nc2c(NC3CCc4ncn(C5CC5)c4C3)ncnc21 (single isomer, unassigned)
Prompt: Order field: pIC50 | Direction: descending (largest first) Returns: the labels listed in the requested order.
Response: 3, 2, 1

###

Target: PI3Kalpha (Homo sapiens)
Construct: purchased Upstate; Millipore 14-602
Test: HTRF PI3K biochemical assay, alpha isoform (selectivity versus delta)
Conditions: relative ratio PI3K-alpha IC50 value / PI3K-delta IC50 value
endpoint-name: Selectivity versus PI3Kalpha

Please review the entries below; each comes with its answer.
1. CCn1c(-c2ccc(C(F)(F)F)cc2)nc2c(NC3CCc4[nH]nc(C(C)C)c4C3)ncnc21 (single isomer, unassigned) [Compound 2-7]: >10
2. CCn1c(-c2cnc(C)nc2)nc2c(NC3CCc4nc(C(F)F)n(C5CC5)c4C3)ncnc21 (single isomer, unassigned) [Compound 5-11]: >10
3. CCn1c(-c2ccc(S(C)(=O)=O)nc2)nc2c(NC3CCc4nnc(C5CC5)n4C3)ncnc21 (single isomer, unassigned) [Compound 1-30]: >10
4. CCn1c(-c2ccc(C(F)F)cc2)nc2c(NC3CCc4nnc(C(C)C)n4C3)ncnc21 (single isomer, unassigned) [Compound 1-24]: >10
5. CCn1c(-c2cnc(C)nc2)nc2c(OC3CCc4nnc(C5CCC5)n4C3)ncnc21 (single isomer, unassigned) [Compound 1-36]: >10
6. CCn1c(-c2cnc(C)nc2)nc2c(NC3CCc4nc(C)n(C5CC5)c4C3)ncnc21 (single isomer, unassigned) [Compound 5-7]: >10

Looking up CCn1c(-c2cnc(C)nc2)nc2c(OC3CCc4nnc(C5CC5)n4C3)ncnc21 (single isomer, unassigned) [Compound 1-31] , I found its Selectivity versus PI3Kalpha recorded as >10

Looking up CCn1c(-c2cnc(C)nc2)nc2c(NC3CCc4c(c(C(C)C)nn4-c4ccccn4)C3)ncnc21 (racemic) [Compound 2-22] , I found its Selectivity versus PI3Kalpha recorded as >10

Looking up CCn1c(-c2cnc(C)nc2)nc2c(OC3CCc4nnc(C(C)C)n4C3)ncnc21 (single isomer, unassigned) [Compound 1-33] , I found its Selectivity versus PI3Kalpha recorded as >10

Looking up CCn1c(-c2cnc(C)nc2)nc2c(NC3CCc4c(c(C(C)C)nn4C(=O)CN(C)C)C3)ncnc21 (racemic) [Compound 2-14] , I found its Selectivity versus PI3Kalpha recorded as >10

Looking up CCn1c(-c2cnc(C)nc2)nc2c(OC3CCc4nnc(C5CCC5)n4C3)ncnc21 (single isomer, unassigned) [Compound 1-35] , I found its Selectivity versus PI3Kalpha recorded as >10

Looking up CCn1c(-c2cnc(C)nc2)nc2c(NC3CCc4nc(Cl)n(C5CC5)c4C3)ncnc21 (racemic) [Compound 5-12] , I found its Selectivity versus PI3Kalpha recorded as >10
